So I've got a bunch of molecules here, and I need their pEC50 values.
System: Wnt/β-catenin signaling pathway (Wnt-responsive SP5 promoter luciferase reporter in SW480 cells)
Experimental Details: Wnt reporter (SP5 promoter-firefly luciferase) activation assay in SW480 cells
Assay type: cell-based
Experimental Parameters: Homo sapiens; SW480 colon cancer cells with SP5 promoter luciferase reporter; 24 h after compound addition; normalized to DMSO; concentration at half maximal activation
In plain terms, pEC50 is the concentration in mol/L turned into minus its base-10 logarithm.

O=C(CCC(=O)c1ccccn1)c1ccc2sccc2c1 [Compound 310] yielded pEC50 of 7.17

Record O=C(CCC(=O)c1ncccn1)c1ccc2c(c1)OCO2 [Compound 372] , field pEC50: 7.01

Record COc1ccccc1C(=O)CCC(=O)c1ccc2occc2c1 [Compound 281] . Reported pEC50: 7.21

Item: O=C(CCC(=O)c1ccc2c(c1)OCCO2)c1cccc(C(F)(F)F)c1 [Compound 9] | pEC50: 7.00

###

Exercise: state measured EC50 for each of the compounds provided.
System: Wnt/β-catenin signaling pathway (Wnt-responsive SP5 promoter luciferase reporter in SW480 cells)
Experimental Details: Wnt reporter (SP5 promoter-firefly luciferase) activation assay in SW480 cells
Type: cell-based
Experimental Parameters: Homo sapiens; SW480 colon cancer cells with SP5 promoter luciferase reporter; 24 h after compound addition; normalized to DMSO; concentration at half maximal activation
Entry rule: numbers only, all in nM.

Measured EC50, COc1ccc(C(=O)CCC(=O)c2cccc(C)c2)cc1OC : 5950

In plain terms, O=C(CCC(=O)c1ccncn1)c1ccc2c(c1)OCCO2 has a documented EC50 of 209

The compound O=C(CCC(=O)c1cccnn1)c1ccc2c(c1)OCCO2 showed EC50 equal to 95

Value of EC50 reported for the compound O=C(CCC(=O)c1ccco1)c1ccc2c(c1)OC(F)(F)O2 is 165

Memo: O=C(CCC(=O)c1c[nH]c2ccccc12)c1cccs1 , reported EC50: 88

Notebook: O=C(CCC(=O)c1ccccn1)c1ccc2[nH]ncc2c1 , EC50 read as 36

# compound O=C(CCC(=O)c1ccco1)c1ccc2[nH]ncc2c1 ; its EC50 = 127

Sure, the documented EC50 for O=C(CCC(=O)c1ccccc1F)c1ccc2c(c1)SCCO2 is 3

So for O=C(CCC(=O)c1ccc2[nH]ncc2c1)c1ccccc1 , the logged EC50 turned out to be 39

For record Cc1ccccc1C(=O)CCC(=O)c1ccc2occc2c1 the listed EC50 is 32

EC50 reported for this compound O=C(CCC(=O)c1ccccc1F)c1ccc2c(c1)CCCO2 : 2.5

Memo: O=C(CCC(=O)c1cccs1)c1ccc2c(c1)OCO2 , reported EC50: 13

Reported EC50 for O=C(CCC(=O)c1ccc2occc2c1)c1ccccc1 was 87

Input O=C(CCC(=O)c1ccc2c(c1)CCCO2)c1ccccc1 . Output EC50: 10

compound O=C(CCC(=O)c1ccccc1C(F)(F)F)c1ccccn1 , EC50 observed: 2810

Reported EC50 of O=C(CCC(=O)c1n[nH]c2ccccc12)c1ccccc1F : 89

Reported EC50 for O=C(CCC(=O)c1ccccc1C(F)(F)F)c1ccc2c(c1)CCCO2 was 6

The recorded EC50 for entry O=C(CCC(=O)c1ncccn1)c1ccc2c(c1)CCCO2 equals 188

Sample O=C(CCC(=O)c1ccc2c(c1)SCCO2)c1ccccc1 ; EC50 observed: 9

Lab book: EC50 of O=C(CCC(=O)c1ccc2ocnc2c1)c1ccccc1 noted as 18

###

System: Wnt/β-catenin signaling pathway (Wnt-responsive SP5 promoter luciferase reporter in SW480 cells)
Experimental Details: Wnt reporter (SP5 promoter-firefly luciferase) activation assay in SW480 cells
Format: cell-based
Experimental Parameters: Homo sapiens; SW480 colon cancer cells with SP5 promoter luciferase reporter; 24 h after compound addition; normalized to DMSO; concentration at half maximal activation
pEC50: −log10 of the molar value.
Assay Readout: pEC50

Reported pEC50 of COc1ccc(C(=O)CCC(=O)c2ncccn2)cc1OC [Compound 431] : < 5.00

For Cc1ccccc1C(=O)CCC(=O)c1ccc2ocnc2c1 [Compound 485] the compound record lists pEC50 as < 5.00

pEC50 measured on O=C(CCC(=O)c1cccc2c1OCCO2)c1ccc(C(F)(F)F)cc1 [Compound 238] = < 5.00

get_value(item= O=C(CCC(=O)c1ccc2c(c1)CCCO2)c1cccc(C(F)(F)F)c1 [Compound 69] , readout=pEC50) returns < 5.00

Record COc1ccc(C(=O)CCC(=O)c2ccncc2)cc1OC [Compound 209] . Reported pEC50: < 5.00

Looking up O=C(CCC(=O)c1ccc2[nH]cnc2c1)c1cccc(C(F)(F)F)c1 [Compound 263] , I found its pEC50 recorded as < 5.00

Summary for this compound, Cc1ccc(C(=O)CCC(=O)c2ccc3[nH]ccc3c2)cc1 [Compound 447] : pEC50 is < 5.00

Record O=C(CCC(=O)c1c[nH]c2ccccc12)c1ccc(C(F)(F)F)cc1 [Compound 316] . Reported pEC50: < 5.00
